molecular target: HLA-A*02 (human); assay: UV-exchange b2m ELISA
READOUT: peptide exchange yield

* MLAGIAITV | 50 to 75%
* KIIDFLSAL | 50 to 75%

Q: // peptide exchange yield lookup, key: ALHFSEDEI
Ans: 20 to 49%

Q: Try this binder next: YLLQSVNQLLL
Ans: 20 to 49%

Q: Try this binder next: KLQNIMMLL
Ans: 20 to 49%

Data provenance: patent US20170165338A1
